test system: REH (B-Lymphoblastic Leukemia); assay: combination Emax (second highest fraction inhibited in the dose matrix, 72 h); higher = more inhibition; extreme values may be limits of the assay
PARAMETER: combination Emax
Lab note: write the figure by itself, no unit.

[
  {
    "COMPOUND": "COc1nnc2ccc(N3CCC(c4ccc(OCCN5CCN(C)C(=O)[C@H]5C)cc4)CC3)nn12 [AZD5153] + Cn1cnc2c(F)c(Nc3ccc(Br)cc3Cl)c(C(=O)NOCCO)cc21 [Selumetinib] (first compound max 1 µM, 7x7, partner max 10 µM)",
    "RESULT NUMBER": 0.469
  },
  {
    "COMPOUND": "COc1nnc2ccc(N3CCC(c4ccc(OCCN5CCN(C)C(=O)[C@H]5C)cc4)CC3)nn12 [AZD5153] + CC1(C)CCC(CN2CCN(c3ccc(C(=O)NS(=O)(=O)c4ccc(NCC5CCOCC5)c([N+](=O)[O-])c4)c(Oc4cnc5[nH]ccc5c4)c3)CC2)=C(c2ccc(Cl)cc2)C1 [Venetoclax] (first compound max 1 µM, 7x7, partner max 1 µM)",
    "RESULT NUMBER": 0.911
  }
]

// next entry
# input I have this compound here, CC1(C)CCC(CN2CCN(c3ccc(C(=O)NS(=O)(=O)c4ccc(NCC5CCOCC5)c([N+](=O)[O-])c4)c(Oc4cnc5[nH]ccc5c4)c3)CC2)=C(c2ccc(Cl)cc2)C1 [Venetoclax] + C=CCn1c(=O)c2cnc(Nc3ccc(N4CCN(C)CC4)cc3)nc2n1-c1cccc(C(C)(C)O)n1 [AZD1775] (first compound max 1 µM, partner max 1 µM) , and I need its recorded combination Emax.
# output 1

* * *

tested on: MFE-280 (Endometrial Carcinoma); experiment: Bliss excess, mean over the matrix (fraction); higher = more synergy
PARAMETER: Bliss excess
Please respond with just the number, no unit label.

Known Bliss excess results, listed for orientation:
[
  {
    "COMPOUND": "O=C(c1cc(Cc2n[nH]c(=O)c3ccccc23)ccc1F)N1CCN(C(=O)C2CC2)CC1 [Olaparib] + Cc1c2c(nn1C)CSCc1cc(n(C)n1)CSc1cc(c3ccccc3c1)OCCCc1c(C(=O)O)n(C)c3c-2c(Cl)ccc13 [AZD5991] (first compound max 10 µM, 7x7, partner max 1 µM)",
    "PARAMETER": "Bliss excess",
    "RESULT NUMBER": -0.0341
  },
  {
    "COMPOUND": "CN(CCO)CC[C@H](CSc1ccccc1)Nc1ccc(S(=O)(=O)NC(=O)c2ccc(N3CCC([C@@H](O)c4ccccc4-c4ccc(Cl)cc4)CC3)cc2)cc1S(=O)(=O)C(F)(F)F [AZD4320] + Nc1ccn([C@@H]2O[C@H](CO)[C@@H](O)C2(F)F)c(=O)n1 [Gemcitabine] (first compound max 1 µM, 7x7, partner max 0.3 µM)",
    "PARAMETER": "Bliss excess",
    "RESULT NUMBER": -0.0216
  },
  {
    "COMPOUND": "Cc1c2c(nn1C)CSCc1cc(n(C)n1)CSc1cc(c3ccccc3c1)OCCCc1c(C(=O)O)n(C)c3c-2c(Cl)ccc13 [AZD5991] + CC1(C)CCC(CN2CCN(c3ccc(C(=O)NS(=O)(=O)c4ccc(NCC5CCOCC5)c([N+](=O)[O-])c4)c(Oc4cnc5[nH]ccc5c4)c3)CC2)=C(c2ccc(Cl)cc2)C1 [Venetoclax] (first compound max 1 µM, 7x7, partner max 1 µM)",
    "PARAMETER": "Bliss excess",
    "RESULT NUMBER": -0.0225
  },
  {
    "COMPOUND": "NC1(C(=O)N[C@@H](CCO)c2ccc(Cl)cc2)CCN(c2ncnc3[nH]ccc23)CC1 [Capivasertib] + CC(C)n1c(=O)n(C)c2cnc3cc(F)c(-c4ccc(OCCCN5CCCCC5)nc4)cc3c21 [AZD1390] (first compound max 10 µM, 7x7, partner max 0.3 µM)",
    "PARAMETER": "Bliss excess",
    "RESULT NUMBER": -0.0763
  },
  {
    "COMPOUND": "CN(CCO)CC[C@H](CSc1ccccc1)Nc1ccc(S(=O)(=O)NC(=O)c2ccc(N3CCC([C@@H](O)c4ccccc4-c4ccc(Cl)cc4)CC3)cc2)cc1S(=O)(=O)C(F)(F)F [AZD4320] + C1CN(CCC1(C(=O)N[C@@H](CCO)C2=CC=C(C=C2)Cl)N)C3=NC=NC4=C3C=CN4 [Capivasertib] (first compound max 1 µM, 7x7, partner max 3 µM)",
    "PARAMETER": "Bliss excess",
    "RESULT NUMBER": 0.0092
  }
]

Now look at this entry.
# input I am curious: what Bliss excess value has been reported for COc1nnc2ccc(N3CCC(c4ccc(OCCN5CCN(C)C(=O)[C@H]5C)cc4)CC3)nn12 [AZD5153] + CCN(CCO)CCCOc1ccc2c(Nc3cc(CC(=O)Nc4cccc(F)c4)[nH]n3)ncnc2c1 [AZD2811] (first compound max 1 µM, 7x7, partner max 1 µM) ?
# output -0.0343

* * *

system: SK-MEL-2 (Melanoma); assay: Bliss excess, mean over the matrix (fraction); higher = more synergy
We begin with a simple list: items and their reported Bliss excess.
Reply with just the number.

Take a look at these entries with their results.
[
  {
    "MOLECULE": "NC1(C(=O)N[C@@H](CCO)c2ccc(Cl)cc2)CCN(c2ncnc3[nH]ccc23)CC1 [Capivasertib] + CCN(CCO)CCCOc1ccc2c(Nc3cc(CC(=O)Nc4cccc(F)c4)[nH]n3)ncnc2c1 [AZD2811] (first compound max 10 µM, 7x7, partner max 1 µM)",
    "Bliss excess": -0.0383
  },
  {
    "MOLECULE": "NC1(C(=O)N[C@@H](CCO)c2ccc(Cl)cc2)CCN(c2ncnc3[nH]ccc23)CC1 [Capivasertib] + C[C@@H]1COCCN1C2=NC(=NC(=C2)C3(CC3)[S@](=N)(=O)C)C4=C5C=CNC5=NC=C4 [AZD6738] (first compound max 10 µM, 7x7, partner max 10 µM)",
    "Bliss excess": -0.0335
  },
  {
    "MOLECULE": "NC1(C(=O)N[C@@H](CCO)c2ccc(Cl)cc2)CCN(c2ncnc3[nH]ccc23)CC1 [Capivasertib] + Cn1cnc2c(F)c(Nc3ccc(Br)cc3Cl)c(C(=O)NOCCO)cc21 [Selumetinib] (first compound max 10 µM, 7x7, partner max 10 µM)",
    "Bliss excess": 0.0662
  }
]

Shift focus to the following entry.
# input Requested field: Bliss excess. Item: Cn1cnc2c(F)c(Nc3ccc(Br)cc3Cl)c(C(=O)NOCCO)cc21 [Selumetinib] + C=CCn1c(=O)c2cnc(Nc3ccc(N4CCN(C)CC4)cc3)nc2n1-c1cccc(C(C)(C)O)n1 [AZD1775] (first compound max 10 µM, partner max 1 µM)
# output 0.0533

* * *

tested on: OAW-42 (Ovarian Carcinoma); test: Bliss excess, mean over the matrix (fraction); higher = more synergy
PARAMETER: Bliss excess
The answer should be written as a number, with no unit following it.

// below: answered molecules
[
  {
    "MOLECULE": "CC(=O)c1c(C)c2cnc(Nc3ccc(N4CCNCC4)cn3)nc2n(C2CCCC2)c1=O [Palbociclib] + Cc1c2c(nn1C)CSCc1cc(n(C)n1)CSc1cc(c3ccccc3c1)OCCCc1c(C(=O)O)n(C)c3c-2c(Cl)ccc13 [AZD5991] (first compound max 10 µM, 7x7, partner max 1 µM)",
    "Bliss excess": 0.0143
  },
  {
    "MOLECULE": "COc1nnc2ccc(N3CCC(c4ccc(OCCN5CCN(C)C(=O)[C@H]5C)cc4)CC3)nn12 [AZD5153] + Cc1c2c(nn1C)CSCc1cc(n(C)n1)CSc1cc(c3ccccc3c1)OCCCc1c(C(=O)O)n(C)c3c-2c(Cl)ccc13 [AZD5991] (first compound max 1 µM, 7x7, partner max 1 µM)",
    "Bliss excess": 0.0444
  }
]

Could you now look at the following molecule, please?
# input Form: Entry = CS(=O)(=O)CCNCc1ccc(-c2ccc3ncnc(Nc4ccc(OCc5cccc(F)c5)c(Cl)c4)c3c2)o1 [Lapatinib] + C[C@@H](Oc1cc(-c2cnn(C3CCNCC3)c2)cnc1N)c1c(Cl)ccc(F)c1Cl [Crizotinib] (first compound max 10 µM, 7x7, partner max 10 µM) | System = OAW-42 (Ovarian Carcinoma) | Bliss excess = ____
# output -0.0033

* * *

test system: HCT-15 (Colorectal Carcinoma); assay: Bliss excess, mean over the matrix (fraction); higher = more synergy
Recorded Bliss excess by entry

# annotated cases, reported Bliss excess shown
[
  {
    "COMPOUND": "COc1nnc2ccc(N3CCC(c4ccc(OCCN5CCN(C)C(=O)[C@H]5C)cc4)CC3)nn12 [AZD5153] + Cn1cnc2c(F)c(Nc3ccc(Br)cc3Cl)c(C(=O)NOCCO)cc21 [Selumetinib] (first compound max 1 µM, 7x7, partner max 10 µM)",
    "EXPERIMENTAL SYSTEM": "HCT-15 (Colorectal Carcinoma)",
    "Bliss excess": 0.0243
  },
  {
    "COMPOUND": "CC(=O)c1c(C)c2cnc(Nc3ccc(N4CCNCC4)cn3)nc2n(C2CCCC2)c1=O [Palbociclib] + Cc1c2c(nn1C)CSCc1cc(n(C)n1)CSc1cc(c3ccccc3c1)OCCCc1c(C(=O)O)n(C)c3c-2c(Cl)ccc13 [AZD5991] (first compound max 10 µM, 7x7, partner max 1 µM)",
    "EXPERIMENTAL SYSTEM": "HCT-15 (Colorectal Carcinoma)",
    "Bliss excess": 0.0011
  },
  {
    "COMPOUND": "Cn1cnc2c(F)c(Nc3ccc(Br)cc3Cl)c(C(=O)NOCCO)cc21 [Selumetinib] + C=CCn1c(=O)c2cnc(Nc3ccc(N4CCN(C)CC4)cc3)nc2n1-c1cccc(C(C)(C)O)n1 [AZD1775] (first compound max 10 µM, partner max 1 µM)",
    "EXPERIMENTAL SYSTEM": "HCT-15 (Colorectal Carcinoma)",
    "Bliss excess": -0.0198
  },
  {
    "COMPOUND": "Cc1cc2ncnn2cc1Nc1ncc2c(n1)n(C1CCOCC1)c(=O)n2C [AZD7648] + O=C(c1cc(Cc2n[nH]c(=O)c3ccccc23)ccc1F)N1CCN(C(=O)C2CC2)CC1 [Olaparib] (first compound max 10 µM, 7x7, partner max 10 µM)",
    "EXPERIMENTAL SYSTEM": "HCT-15 (Colorectal Carcinoma)",
    "Bliss excess": 0.0666
  }
]

Then this compound:
# input I would be grateful if you could share the reported Bliss excess for CC(=O)c1c(C)c2cnc(Nc3ccc(N4CCNCC4)cn3)nc2n(C2CCCC2)c1=O [Palbociclib] + Cn1cnc2c(F)c(Nc3ccc(Br)cc3Cl)c(C(=O)NOCCO)cc21 [Selumetinib] (first compound max 10 µM, 7x7, partner max 10 µM) .
# output 0.0538
